# Tested on: RAW264.7
# measurementProtocol: Antiinflammatory activity in mouse RAW264.7 cells assessed as inhibition of NO production preincubated for 1 hr followed by LPS stimulation measured after 24 hrs by Griess reagent based assay
# Type: functional, cell-based
# appliedConditions: raw264.7

{"columns": ["molSmiles", "IC50"],
 "data": [
  ["CC1(C)CC[C@]2(C(=O)O)CC[C@]3(C)C(=CC(=O)[C@@H]4[C@@]5(C)CC[C@H](O)C(C)(C)[C@@H]5CC[C@]43C)[C@@H]2C1", "Not Active"],
  ["CC1(C)[C@@H](O)CC[C@]2(C)[C@H]3[C@H](O)C=C4[C@@H]5C[C@@](C)(CO)CC[C@]5(C)C[C@H](O)[C@@]4(C)[C@]3(C)[C@@H](O)C[C@@H]12", "Not Active"],
  ["CC1(C)[C@@H](O)CC[C@]2(C)[C@H]3C(=O)C=C4[C@@H]5C[C@@](C)(C(=O)O[C@@H]6O[C@H](CO)[C@@H](O)[C@H](O)[C@H]6O)CC[C@]5(C)CC[C@@]4(C)[C@]3(C)CC[C@@H]12", "Not Active"]
]}

----------
Parameter viability: see the listing below.
# measurementProtocol: Cytotoxicity against mouse RAW264.7 cells assessed as cell viability
# Format: cell-based
# Design: concentration or dose not given beside the values
# appliedConditions: read-out: Activity

A selection of reference data follows.
{"columns": ["molSmiles", "reportedValue"],
 "data": [
  ["CC1(C)CC[C@]2(C(=O)O)CC[C@]3(C)C(=CC(=O)[C@@H]4[C@@]5(C)CC[C@H](O)C(C)(C)[C@@H]5CC[C@]43C)[C@@H]2C1", "111%"],
  ["CC1(C)[C@@H](O)CC[C@]2(C)[C@H]3[C@H](O)C=C4[C@@H]5C[C@@](C)(CO)CC[C@]5(C)C[C@H](O)[C@@]4(C)[C@]3(C)[C@@H](O)C[C@@H]12", "112%"]
]}

Exercise: Quote viability reported for `CC1(C)[C@@H](O)CC[C@]2(C)C3=CC=C4[C@@H]5C[C@@](C)(CO)CC[C@]5(C)C[C@H](O)[C@@]4(CO)[C@]3(C)[C@@H](O)C[C@@H]12` please.
Solution: 130%

Exercise: Give me measured viability, please, for this molecule: `CC1(C)[C@@H](O[C@@H]2O[C@H](CO)[C@@H](O)[C@H](O)[C@H]2O)CC[C@]2(C)[C@H]3C(=O)C=C4[C@@H]5C[C@@](C)(CO)CC[C@]5(C)CC[C@@]4(C)[C@]3(C)CC[C@@H]12`
Solution: 1.22%

Exercise: Assign viability to the following record: `CC1(C)[C@@H](O)CC[C@]2(C)[C@H]3CC=C4[C@@H]5C[C@@](C)(CO)CC[C@]5(C)CC[C@@]4(C)[C@]3(C)CC[C@@H]12`
Solution: 102%

----------
# Tested on: RAW264.7
# measurementProtocol: Antiinflammatory activity in mouse RAW264.7 cells assessed as inhibition of NO production preincubated for 1 hr followed by LPS stimulation measured after 24 hrs by Griess reagent based assay
# Type: functional, cell-based
# appliedConditions: raw264.7
quantityKind: IC50

{"columns": ["compound", "assaySystem", "reportedValue"],
 "data": [
  ["CC1(C)[C@@H](O)CC[C@]2(C)C3[C@H](O)C=C4[C@@H]5C[C@@](C)(CO)CC[C@]5(C)CC[C@@]4(C=O)[C@]3(C)[C@@H](O)C[C@@H]12 (stereo partly drawn)", "RAW264.7", "Not Active"],
  ["CC1(C)[C@@H](O)CC[C@]2(C)[C@H]3CC=C4[C@@H]5C[C@@](C)(CO)CC[C@]5(C)C[C@H](O)[C@@]4(C)[C@]3(C)[C@@H](O)C[C@@H]12", "RAW264.7", "Not Active"],
  ["CC1(C)[C@@H](O)CC[C@]2(C)[C@H]3C(=O)C=C4[C@@H]5C[C@@](C)(C(=O)O)CC[C@]5(C)CC[C@@]4(C)[C@]3(C)CC[C@@H]12 [ENOXOLONE]", "RAW264.7", "Not Active"]
]}

----------
viability listing for selected molecules.
# measurementProtocol: Cytotoxicity against mouse RAW264.7 cells assessed as cell viability
# Format: cell-based
# Parameters: concentration or dose not given beside the values
# appliedConditions: read-out: Activity
Answer with a number only, understood to be in %.

Examples from the recorded data:
{"columns": ["molecule", "quantityKind", "reportedValue"],
 "data": [
  ["CC1(C)C(=O)CC[C@]2(C)[C@H]3CC=C4[C@@H]5C[C@@](C)(CO)CC[C@]5(C)CC[C@@]4(C)[C@]3(C)CC[C@@H]12", "viability", 110],
  ["CC1(C)[C@@H](O[C@@H]2O[C@H](CO)[C@@H](O)[C@H](O)[C@H]2O)CC[C@]2(C)[C@H]3C(=O)C=C4[C@@H]5C[C@@](C)(C=O)CC[C@]5(C)CC[C@@]4(C)[C@]3(C)CC[C@@H]12", "viability", 7.33],
  ["CC1(C)[C@@H](O[C@@H]2O[C@H](CO)[C@@H](O)[C@H](O)[C@H]2O)CC[C@]2(C)[C@H]3C(=O)C=C4[C@@H]5C[C@@](C)(C(=O)O[C@@H]6O[C@H](CO)[C@@H](O)[C@H](O)[C@H]6O)CC[C@]5(C)CC[C@@]4(C)[C@]3(C)CC[C@@H]12", "viability", 121],
  ["CC1(C)[C@@H](O)CC[C@]2(C)[C@H]3CC=C4[C@@H]5C[C@@](C)(C(=O)O)CC[C@]5(C)CC[C@@]4(C)[C@]3(C)CC[C@@H]12", "viability", 83.4],
  ["CC1(C)[C@@H](O)CC[C@]2(C)[C@H]3C(=O)C=C4[C@@H]5C[C@@](C)(C(=O)O)CC[C@]5(C)CC[C@@]4(C)[C@]3(C)CC[C@@H]12", "viability", 4.04],
  ["CC1(C)[C@@H](O)CC[C@]2(C)C3[C@H](O)C=C4[C@@H]5C[C@@](C)(CO)CC[C@]5(C)CC[C@@]4(C=O)[C@]3(C)[C@@H](O)C[C@@H]12 (stereo partly specified)", "viability", 130],
  ["CC1(C)[C@@H](O)CC[C@]2(C)[C@H]3C(=O)C=C4[C@@H]5C[C@@](C)(C=O)CC[C@]5(C)CC[C@@]4(C)[C@]3(C)CC[C@@H]12", "viability", 89.6],
  ["CC1(C)[C@@H](O)CC[C@]2(C)[C@H]3CC=C4[C@@H]5C[C@@](C)(CO)CC[C@]5(C)C[C@H](O)[C@@]4(C)[C@]3(C)[C@@H](O)C[C@@H]12", "viability", 120]
]}

Exercise: State its viability: `CC1(C)[C@@H](O)CC[C@]2(C)[C@H]3CC=C4[C@@H]5[C@H](O)[C@@](C)(CO)CC[C@]5(C)C[C@H](O)[C@@]4(C)[C@]3(C)[C@@H](O)C[C@@H]12`
Solution: 125

Exercise: Answer with the recorded viability for the molecule listed here: `O=c1c(O)c(-c2ccc(O)c(O)c2)oc2cc(O)cc(O)c12`
Solution: 106

Exercise: Give viability for `CC1(C)[C@@H](O)CC[C@]2(C)[C@H]3CC=C4[C@@H]5C[C@@](C)(CO)CC[C@]5(C)C[C@H](O)[C@@]4(CO)[C@]3(C)[C@@H](O)C[C@@H]12`
Solution: 107

----------
Below, each of the molecules is paired with its reported viability value.
# measurementProtocol: Cytotoxicity against mouse RAW264.7 cells assessed as cell viability
# Assay type: cell-based
# Set-up: concentration or dose not given beside the values
# appliedConditions: read-out: Activity

{"columns": ["molSmiles", "quantityKind", "reportedValue"],
 "data": [
  ["CC1(C)[C@@H](O)CC[C@]2(C)[C@H]3CC=C4[C@@H]5C[C@@](C)(C(=O)O)CC[C@]5(C)CC[C@@]4(CO)[C@]3(C)[C@@H](O)C[C@@H]12", "viability", "114%"],
  ["CC1(C)[C@@H](O)CC[C@]2(C)[C@H]3C(=O)C=C4[C@@H]5C[C@@](C)(CO)CC[C@]5(C)CC[C@@]4(C)[C@]3(C)CC[C@@H]12", "viability", "56.6%"],
  ["CC1(C)CC[C@]2(C(=O)O[C@@H]3O[C@H](CO)[C@@H](O)[C@H](O)[C@H]3O)CC[C@]3(C)C(=CC(=O)[C@@H]4[C@@]5(C)CC[C@H](O)C(C)(C)[C@@H]5CC[C@]43C)[C@@H]2C1", "viability", "82.7%"]
]}

Okay, now this molecule:
Exercise: Give recorded viability. `CC1(C)[C@@H](O)CC[C@]2(C)[C@H]3C(=O)C=C4[C@@H]5C[C@@](C)(C(=O)O[C@@H]6O[C@H](CO)[C@@H](O)[C@H](O)[C@H]6O)CC[C@]5(C)CC[C@@]4(C)[C@]3(C)CC[C@@H]12`
Solution: 94.8%
